All figures here come from PubChem BioAssay AID220.

system: CD8F1 mice, subcutaneous mammary adenocarcinoma, T/C%; assay: NCI In Vivo Anticancer Drug Screen. Data for tumor model Mammary Adenocarcinoma CD8F1 (subcutaneous) in CD8F1; settings: endpoint: median tumor weight change; dose: 500.0 mg/kg/injection; schedule: Q01DX001 (ip); vehicle: Klucel (hydroxypropylcellulose) (HPC); higher = larger tumour
Results filed as inconclusive are left out.
ASSAY_METRIC: T/C

COMPOUND: Cc1ccc(NCCN(C)C)c2c(=O)c3cc(O)ccc3sc12
REPORTED: -6 % of control

COMPOUND: OCC1OC(n2cnc3c(=S)nc[nH]c32)C(O)C1O (centres undefined)
REPORTED: 79 % of control

COMPOUND: Cc1ccc(C2NC(=S)N3C(c4ccc(C)cc4)NC(=S)N23)cc1 (centres undefined)
REPORTED: 107 % of control

// switching to the query compound
// C[Si](C)(C)OSc1ccccc1[N+](=O)[O-] : T/C value = 93 % of control

* * *

tested on: CD8F1 mice, subcutaneous mammary adenocarcinoma, T/C%; assay: NCI In Vivo Anticancer Drug Screen. Data for tumor model Mammary Adenocarcinoma CD8F1 (subcutaneous) in CD8F1; conditions: endpoint: median tumor weight (est.); dose: 25.0 mg/kg/injection; schedule: Q07DX005 (ip); vehicle: saline; higher = larger tumour
Results filed as inconclusive are left out.
Reported T/C values for the following compounds.

Worked cases, T/C given:
CHEM_SMILES: c1cc2n(n1)CCN2
REPORTED: 94 % of control

CHEM_SMILES: CC[C@](O)(C(=O)O)c1cc2n(c(=O)c1CO)Cc1cc3ccccc3nc1-2
REPORTED: 41 % of control

CHEM_SMILES: NC1(C(=O)O)CCCC1
REPORTED: 39 % of control

CHEM_SMILES: O=[N+]([O-])O.[Ga]
REPORTED: 120 % of control

CHEM_SMILES: C[C@@H](CN1CC(=O)NC(=O)C1)N1CC(=O)NC(=O)C1
REPORTED: 75 % of control

The reported T/C value, CD8F1 mice, subcutaneous mammary adenocarcinoma, T/C%, for CC(/C=N/N=C(N)N)=N\N=C(N)N reads 110 % of control

* * *

Reported T/C values for the following compounds.
tested on: CD8F1 mice, subcutaneous mammary adenocarcinoma, T/C%; experiment: NCI In Vivo Anticancer Drug Screen. Data for tumor model Mammary Adenocarcinoma CD8F1 (subcutaneous) in CD8F1; conditions: endpoint: median tumor weight (est.); dose: 25.0 mg/kg/injection; schedule: Q07DX005 (ip); vehicle: saline with Tween-80; higher = larger tumour
Inconclusive results are not listed.

COMPOUND: CC(C)=CCNc1ncnc2c1ncn2C1OC(CO)C(O)C1O (stereo not given)
REPORTED: 84 % of control

COMPOUND: O=Cc1ccc([N+](=O)[O-])s1
REPORTED: 295 % of control

COMPOUND: COC1=CC(=O)C(OC)=C(OC)C1=O
REPORTED: 90 % of control

// CCCCc1ccc2nc(NC(=O)OC)[nH]c2c1 : T/C value = 61 % of control

// O=C1N(Cl)C(=O)C(c2ccc(Cl)cc2)(c2ccc(Cl)cc2)N1Cl : T/C value = 119 % of control

// CCCCCCCCCCCCSC1=C(Cl)C(=O)C(OC)=C(OC)C1=O : T/C value = 89 % of control

// COC1=C(OC)C(=O)C(SC/C=C(\C)CCCC(C)CCCC(C)CCCC(C)C)=CC1=O (stereo not given) : T/C value = 110 % of control

// c1ccc2sc(SSN3CC4CCC(CC4)C3)nc2c1 : T/C value = 33 % of control

// COc1cc(O)c2c(O)c3c(c4c2c1[C@]1(C4)C(C)=CCCC1(C)C)[C@H](O)[C@@]1(O)CC(=O)C(C(N)=O)=C(O)[C@@]1(O)C3=O : T/C value = 95 % of control

// COC(=O)C(F)C(Br)C(=O)OC (stereo not given) : T/C value = 106 % of control

// Cc1cc(N(CC(C)Br)CC(C)Br)ccc1N=Nc1ccccc1C(=O)O (stereo not given) : T/C value = 23 % of control

// CCOC(=O)C1(c2ccccc2)C(=O)Oc2ccccc21 (stereo not given) : T/C value = 69 % of control

// C=CCNc1nc2c(s1)CCc1cc(OC)c(OC)cc1-2 : T/C value = 44 % of control

// O=S1(=O)C=C(c2ccccc2)C(c2ccccc2)=C1 : T/C value = 72 % of control

// O=C(Nc1nncs1)c1ccncc1 : T/C value = 151 % of control

// CCSC(=O)N1c2ccc(OC)cc2C=CC1C#N (stereo not given) : T/C value = 93 % of control

// CCOC(=O)C(C)(C)Oc1ccc(Cl)cc1 : T/C value = 113 % of control

// BrCC[Se]c1ccccc1 : T/C value = 80 % of control

// CC1(C)OC2C(COC(=O)c3ccc([N+](=O)[O-])cc3)OC(NC(=O)N(CCCl)N=O)C2O1 (stereo not given) : T/C value = 51 % of control

// NCCCNCCSP(=O)(O)O : T/C value = 39 % of control

// c1ccc2c(c1)nnn1c3cnccc3nc21 : T/C value = 124 % of control

// ClC(Cl)(Cl)C1=NCc2nnn(Cc3ccccc3)c2N1 : T/C value = 66 % of control

// Brc1ccc(C[N+]23CN4CN(CN(C4)C2)C3)cc1 : T/C value = 90 % of control

// Oc1cc2ccccc2c(-c2c(O)c(O)cc3ccccc23)c1O : T/C value = 67 % of control

// COC1=C(OC)C(=O)C(C/C=C(\C)CC/C=C(\C)CC/C=C(\C)CC/C=C(\C)CC/C=C(\C)CC/C=C(\C)CC/C=C(\C)CC/C=C(\C)CC/C=C(\C)CCC=C(C)C)=C(C)C1=O : T/C value = 67 % of control

* * *

tested on: CD8F1 mice, subcutaneous mammary adenocarcinoma, T/C%; assay: NCI In Vivo Anticancer Drug Screen. Data for tumor model Mammary Adenocarcinoma CD8F1 (subcutaneous) in CD8F1; conditions: endpoint: median tumor weight change; dose: 25.0 mg/kg/injection; schedule: Q01DX001 (ip); vehicle: suspension in saline; higher = larger tumour
Inconclusive results are not listed.
Reported T/C values for the following compounds.

Worked cases, T/C given:
COMPOUND: Cc1nc(N)nc(N)c1-c1ccc(Cl)c(Cl)c1
T/C: 38 % of control
//
COMPOUND: CC/C(=C(\c1ccccc1)c1ccc(OCCN(C)C)cc1)c1ccccc1
T/C: 105 % of control
//
COMPOUND: O=[Te]=O
T/C: 61 % of control

// switching to the query compound
// CC1=CC2c3cccc4[nH]cc(c34)CC2N(C)C1 (centres undefined) : T/C value = 115 % of control

* * *

Reported T/C values for the following molecules.
tested on: CD8F1 mice, subcutaneous mammary adenocarcinoma, T/C%; assay: NCI In Vivo Anticancer Drug Screen. Data for tumor model Mammary Adenocarcinoma CD8F1 (subcutaneous) in CD8F1; details: endpoint: median tumor weight (est.); dose: 100.0 mg/kg/injection; schedule: Q07DX005 (ip); vehicle: saline with Tween-80; higher = larger tumour
Results filed as inconclusive are left out.

Worked cases, T/C given:
MOLECULE: O=C1N(Cl)C(=O)C(c2ccc(Cl)cc2)(c2ccc(Cl)cc2)N1Cl
T/C: 104 % of control
--
MOLECULE: Nc1nc(N)c2c(Cl)c(CNc3ccc(Cl)c(Cl)c3)ccc2n1
T/C: 27 % of control
--
MOLECULE: C/C=C/c1cc2c(c(=O)o1)C(=O)[C@@H](O)[C@H](C)O2
T/C: 77 % of control
--
MOLECULE: CCO/C=C1\SC(=S)N(c2ccccc2C)C1=O
T/C: 115 % of control
--
MOLECULE: COC1=CC(=O)C(OC)=C(OC)C1=O
T/C: 74 % of control

// CC(C)=CCNc1ncnc2c1ncn2C1OC(CO)C(O)C1O (stereo unspecified) : T/C value = 85 % of control

* * *

test system: CD8F1 mice, subcutaneous mammary adenocarcinoma, T/C%; test: NCI In Vivo Anticancer Drug Screen. Data for tumor model Mammary Adenocarcinoma CD8F1 (subcutaneous) in CD8F1; conditions: endpoint: median tumor weight (est.); dose: 50.0 mg/kg/injection; schedule: Q07DX005 (ip); vehicle: saline; higher = larger tumour
Records with an inconclusive call do not appear.
Reported T/C values for the following compounds.

COMPOUND: O=c1[nH]cc(F)c(=O)[nH]1
T/C: 2 % of control

COMPOUND: Cl
T/C: 91 % of control

COMPOUND: NC(=S)c1ncn(C2OC(CO)C(O)C2O)c1N (centres undefined)
T/C: 39 % of control

COMPOUND: CC[As](=O)(O)CC
T/C: 121 % of control

// Cc1cn(C2CC3[O][Sn]([c]4ccccc4)([c]4ccccc4)[O]CC3O2)c(=O)[nH]c1=O (centres undefined) : T/C value = 84 % of control

// C1CN2CN3CCN(CN1C3)C2 : T/C value = 82 % of control

// C(CSC1=NCCN1)CSC1=NCCN1 : T/C value = 76 % of control

// OC(CCl)CN1CC[N+]2(CC1)CC[N+]1(CCN(CC(O)CCl)CC1)CC2 (centres undefined) : T/C value = 80 % of control

// ClCC[N+]12CC[N+](CCCl)(CC1)C2 (tested in a mixture with another compound) : T/C value = 67 % of control

// CCCCCCCCCCCCCCCC(=O)Nc1ccn(C2OC(CO)C(O)C2O)c(=O)n1 (centres undefined) : T/C value = 65 % of control

// OC(CBr)C(O)C(O)C(O)CBr (centres undefined) : T/C value = 32 % of control

// O=C1C=CN(C2OC(CO)C(O)C2O)C(=O)C1 (centres undefined) : T/C value = 101 % of control

// OCC1(CO)COC2(CCCCC2)N1 : T/C value = 112 % of control

// ClCCCN1CCCCC1CCl (centres undefined) : T/C value = 3 % of control
